Recorded cytotoxicity values for a group of compounds are listed next.
# Assay comment: viability loss of HPDE-C7K cells – cell-based, fluorescence, HTS, primary screen (AID 431);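 further: 0% = DMSO solvent wells and 100% = doxorubicin-treated wells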
# Measurement context: HPDE-C7K KRASV12 cells, Alamar Blue viability, 48 h; at 10 µM; hits give high values
The campaign covered roughly 63,000 compounds. About 1,100 (1.7%) were called active. The sample holds actives, similar compounds and a random draw of the others, so the mix is not that of the screen. Measured potencies and affinities stand elsewhere.
# number only, unit % dropped from output

COc1cc(S(=O)(=O)N2CCN3CCCC3C2)ccc1-n1cnnn1 (configuration not stated); 6.5
Cc1ccc(N2CCN(CC(O)COC3CCCCC3)CC2)cc1 (configuration not stated); 42.6
COc1cccc(C(=O)c2sc(NC(C)C)nc2N)c1; 72.7
CCCCCOc1ccc(NS(C)(=O)=O)cc1; -26.8
CC(C)OC(=O)CCC1(C(=O)O)CCC(=O)NC1 (configuration not stated); -7.1

Using the record for `CCCC(=O)CN1C(=O)C2(OCCO2)c2ccccc21` , report its cytotoxicity.
-6.1

Using the record for CCOC(=O)CSC(CC)C(=O)Nc1nnc(C(C)C)s1 (configuration not stated) , report its cytotoxicity.
1.3

Using the record for `CCCc1nnc(NC(=O)c2cccc(OC)c2)s1` , report its cytotoxicity.
-25.2

Using the record for `O=C(C1CCN(S(=O)(=O)c2cccc3cccnc23)CC1)N1CCN(C2CCCCC2)CC1` , report its cytotoxicity.
8.4

Using the record for COc1ccccc1NC(=O)C1=C(C)NC(SCC(=O)c2ccccc2)=C(C#N)C1c1ccco1 (configuration not stated) , report its cytotoxicity.
27.2

Using the record for `COc1cc(S(=O)(=O)N2CCC(N3CCCCC3)CC2)ccc1-n1cnnn1` , report its cytotoxicity.
12.7

Using the record for `COC(=O)CN(c1ccc(F)cc1)S(=O)(=O)c1ccccc1` , report its cytotoxicity.
-5.6

Using the record for `COc1cc(S(=O)(=O)N2CCCC3(CCCCC3)C2)ccc1-n1cnnn1` , report its cytotoxicity.
76

Using the record for CC1=C(C(=O)Nc2ccccc2)C(c2ccco2)C(C#N)=C(SCC(=O)Nc2cccc(C)c2C)N1 (configuration not stated) , report its cytotoxicity.
79.6

Using the record for CC1=C(C(=O)Nc2ccccc2)C(c2ccco2)C(C#N)=C(SCc2ccccc2)N1 (configuration not stated) , report its cytotoxicity.
57.7

Using the record for CC1CCN(CC(O)COC2CCC(C(C)(C)C)CC2)CC1 (configuration not stated) , report its cytotoxicity.
50.3

Using the record for `COC(=O)c1ccccc1S(=O)(=O)N(Cc1ccco1)Cc1cc2cc(OC)ccc2[nH]c1=O` , report its cytotoxicity.
-1.7

Using the record for CC1=C(C(=O)Nc2ccccc2)C(c2ccco2)C(C#N)=C(SCC(=O)OC(C)C)N1 (configuration not stated) , report its cytotoxicity.
49.2

Using the record for `Cn1c(=O)c(C(=O)NC2CCCCCCC2)c(O)c2ccccc21` , report its cytotoxicity.
13.6

Using the record for `Cn1c(COc2ccccc2)nnc1SCCN1CCOCC1` , report its cytotoxicity.
-8.5

Using the record for CCOC(=O)CSC1=C(C#N)C(c2ccco2)C(C(=O)Nc2cccc(C(F)(F)F)c2)=C(C)N1 (configuration not stated) , report its cytotoxicity.
28.1

Using the record for N=c1n(CCN2CCOCC2)c2ccccc2n1CC(O)COc1ccccc1 (configuration not stated) , report its cytotoxicity.
-9.7
